System: SNB-75
Experiment: NCI tumour cell line growth inhibition, 48 h
Calls of active or inactive are those of the source. No stated cut-off is given here; in the data, active = GI50 up to about 1.1 µM and inactive = higher.
Thanks in advance; please answer with one of these: active, inactive

- O=C(CSc1nc2ccc(I)cc2c(=O)n1Cc1ccccc1)NN1C(=O)CCC1=O: inactive
- CC(Oc1cc2oc(=O)cc(-c3ccccc3)c2cc1Cl)C(=O)O (configuration not stated): inactive
- COC(=O)c1c(C)[nH]c2c1C(=O)C(=O)c1nc(C)c(C)nc1-2: inactive
- COc1ccccc1C(=O)NCC1CCCN2CCCCC12 (configuration not stated): inactive
- O=C(Cn1c(C(=O)/C=C/c2ccco2)nc2ccccc21)c1ccc(Cl)cc1: inactive
- CC(C)OP(=O)(OC(C)C)c1nn(-c2ccc([N+](=O)[O-])cc2)c(=N)s1: inactive
- CN(C)CCCNc1nnc(NCCCN(C)C)c2c(=O)c3sccc3[nH]c12: inactive
- C#CC(C)(C)OC(=O)C(=[N+]=[N-])C(C)=O: inactive
- Nc1ccn(CCOC(c2ccccc2)P(=O)(O)O)c(=O)n1 (configuration not stated): inactive
- CC1NOC(=O)C1/N=N/c1cccc(Cl)c1 (configuration not stated): inactive

Problem: Check the results log: what was the call for N=c1c2c(=S)n(-c3ccccc3)c(=S)n(-c3ccccc3)c2nc(SCCCN2CCCCC2)n1-c1ccccc1 ?
Solution: inactive

Problem: Check the results log: what was the call for CCN1CCC(O)(/C=C/c2ccc(C)cc2)C(C(=O)/C=C/c2ccc(C)cc2)C1 (configuration not stated) ?
Solution: inactive

Problem: Check the results log: what was the call for COC(=O)C(Cc1ccccc1)NP(=O)(O)OCC1OC(n2ccc(N)nc2=O)C(O)C1O (configuration not stated) ?
Solution: inactive
